Target: BRAF (Homo sapiens, UniProt P15056)
Construct: GST; purchased Millipore Sigma B4062-10UG
Sequence (P15056 whole entry): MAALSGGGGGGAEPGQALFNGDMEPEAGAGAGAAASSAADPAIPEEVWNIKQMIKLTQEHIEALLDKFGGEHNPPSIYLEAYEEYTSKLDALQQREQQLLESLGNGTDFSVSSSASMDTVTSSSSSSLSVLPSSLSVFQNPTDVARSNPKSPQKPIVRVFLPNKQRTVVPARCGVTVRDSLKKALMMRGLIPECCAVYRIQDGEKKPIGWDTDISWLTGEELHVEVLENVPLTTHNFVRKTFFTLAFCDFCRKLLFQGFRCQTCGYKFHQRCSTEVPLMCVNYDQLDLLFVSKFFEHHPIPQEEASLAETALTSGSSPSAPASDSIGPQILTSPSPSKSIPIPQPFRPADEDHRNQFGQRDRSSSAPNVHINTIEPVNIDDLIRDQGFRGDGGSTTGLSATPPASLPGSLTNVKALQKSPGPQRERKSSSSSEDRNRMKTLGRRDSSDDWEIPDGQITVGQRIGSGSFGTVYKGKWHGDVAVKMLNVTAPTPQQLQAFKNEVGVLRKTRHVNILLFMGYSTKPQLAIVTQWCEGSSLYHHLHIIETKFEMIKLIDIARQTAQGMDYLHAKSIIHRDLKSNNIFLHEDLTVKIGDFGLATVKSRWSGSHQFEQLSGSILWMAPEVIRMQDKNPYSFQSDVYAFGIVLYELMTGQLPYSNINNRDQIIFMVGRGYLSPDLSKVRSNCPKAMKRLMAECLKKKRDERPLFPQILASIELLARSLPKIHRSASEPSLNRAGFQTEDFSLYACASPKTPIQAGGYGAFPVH
Test: BRAF kinase activity assay (ADP-Glo)
Assay type: biochemical
Details: Table 3; 10 μM ATP, kinase-dead MEK1 substrate
reported-property: IC50

CN1CC2CCC(C1)N2C(=O)c1cn(-c2nc3c(Nc4c(F)ccc(NS(=O)(=O)c5cccc(Cl)c5Cl)c4F)ncnc3s2)c2ccccc12 : < 1 nM
COCCOCCOc1cccc2c1ncn2-c1nc2c(Nc3c(F)ccc(NS(=O)(=O)c4cccc(Cl)c4Cl)c3F)ncnc2s1 : 1 to 10 nM
CN(CCN1CCOCC1)S(=O)(=O)c1cn(-c2nc3c(Nc4c(F)ccc(NS(=O)(=O)c5cccc(Cl)c5Cl)c4F)ncnc3s2)c2ccccc12 : 1 to 10 nM
CC1(C#N)CCN(c2cccc3c2ncn3-c2nc3c(Nc4c(F)ccc(NS(=O)(=O)c5cccc(Cl)c5Cl)c4F)ncnc3s2)CC1 : 1 to 10 nM
O=S(=O)(Nc1ccc(F)c(Nc2ncnc3sc(-n4cnc5c(N6CCN(CCO)CC6)cccc54)nc23)c1F)c1cccc(Cl)c1Cl : < 1 nM

Let us examine a further case.
Simply: `CN(CCc1ccccn1)C(=O)c1cn(-c2nc3c(Nc4c(F)ccc(NS(=O)(=O)c5cccc(Cl)c5Cl)c4F)ncnc3s2)c2ccccc12` , BRAF (Homo sapiens, UniProt P15056), IC50 = < 1 nM

###

Test system: IPC298 cells
Experiment: Proliferation inhibition, CellTiter-Glo, IPC298
Type: cell-based, human
Conditions: Homo sapiens, IPC-298, 72 h; Table D-1; IPC298 (NRAS-Q61L), 3 days; read-out: Prolif. (proliferation EC50)
reported-property: EC50

# EC50 (molecule: Cc1ccc2c(Nc3cccc(Cl)c3F)nccc2c1NC(=O)c1csc2c(N)ncnc12 [Belvarafenib, reference compound] ) is < 300 nM

###

Assign pIC50 to each entry below.
Tested on: pERK, HCT116 cells
Assay: Phospho-ERK inhibition, AlphaLISA p-ERK 1/2, HCT-116
Assay type: cell-based, human
Conditions: Homo sapiens, HCT-116; Table 3; HCT116 cells (KRAS G13D), 1 h treatment
Protocol: All cancer cell lines (A375, A101D, A2058, RKO, HT29 SK-MEL 30, IPC298, HepG2, HCT-116, Lovo, SW620, SW480, NCI-H358, NCI-H2122, Calu-6, NCIH2087, NCIH1755, NCIH1666 and Mewo) were obtained from ATCC and cultured in RPM1-1640 medium (Gibco) supplemented with 5% heat inactivated fetal bovine serum (FBS, Wisent) at 37° C. under 5% CO2. Cells were maintained in T175 flasks (Greiner). […] The effect of each compound dilution on the pERK signal was expressed in % inhibition and calculated as follows. […]
pIC50: −log10 of the molar value.

# annotated cases, reported pIC50 shown
Cc1c(F)cccc1S(=O)(=O)Nc1ccc(F)c(Nc2ncnc3sc(-n4nc(C(=O)N(C)Cc5cccnc5)c5ccccc54)nc23)c1F : 5.00 to 6.00
O=C1CCCN1c1cn(-c2nc3c(Nc4c(F)ccc(NS(=O)(=O)c5cccc(Cl)c5Cl)c4F)ncnc3s2)c2ccccc12 : > 6.30
O=S(=O)(Nc1ccc(F)c(Nc2ncnc3sc(-n4cnc5c(F)cc(F)cc54)nc23)c1F)c1cccc(Cl)c1Cl : > 6.30
CS(=O)(=O)c1cn(-c2nc3c(Nc4c(F)ccc(NS(=O)(=O)c5cccc(Cl)c5Cl)c4F)ncnc3s2)c2ccccc12 : 6.00 to 6.30
CC(C)C(=O)c1cn(-c2nc3c(Nc4c(F)ccc(NS(=O)(=O)c5cccc(Cl)c5Cl)c4F)ncnc3s2)c2ccccc12 : 5.00 to 6.00
CN1CCN(S(=O)(=O)c2cn(-c3nc4c(Nc5c(F)ccc(NS(=O)(=O)c6cccc(Cl)c6Cl)c5F)ncnc4s3)c3ccccc23)CC1 : 5.00 to 6.00
CCC(=O)c1cn(-c2nc3c(Nc4c(F)ccc(NS(=O)(=O)c5cccc(Cl)c5Cl)c4F)ncnc3s2)c2ccccc12 : 5.00 to 6.00
COCCC(=O)c1cn(-c2nc3c(Nc4c(F)ccc(NS(=O)(=O)c5cccc(Cl)c5Cl)c4F)ncnc3s2)c2ccccc12 : 6.00 to 6.30

I need pIC50 for every entry listed below, if you could help.
1. COCCOc1ccc2c(ncn2-c2nc3c(Nc4c(F)ccc(NS(=O)(=O)c5cccc(Cl)c5Cl)c4F)ncnc3s2)c1F
2. CC1(O)CCN(c2cccc3c2ncn3-c2nc3c(Nc4c(F)ccc(NS(=O)(=O)c5cccc(Cl)c5Cl)c4F)ncnc3s2)CC1

6.00 to 6.30
> 6.30

# pIC50 (compound: `O=S(=O)(Nc1ccc(F)c(Nc2ncnc3sc(-n4cnc5c(F)c(F)ccc54)nc23)c1F)c1cccc(Cl)c1Cl` ) is 6.00 to 6.30
